Test: Metabolic stability in mouse liver microsomes (MLM)
Format: in vitro ADME
Details: Table S4; mouse liver microsomes
metric: MLM Cli

Answered examples (2):
O=C(CSc1ncnc2c(C3CC3)c(Cl)sc12)N1CCn2cnnc2C1 [Compound 17p] : 29 µL/min/mg
O=C(CSc1ncnc2c(C3CC3)c(Cl)sc12)N1CCOCC1 [Compound 17c] : > 500 µL/min/mg

Given item O=C(O)CSc1ncnc2c(C3CC3)c(Cl)sc12 [Compound 1] , the value recorded as its MLM Cli is 1e+06 µL/min/mg

====

Tested on: MDCK-MDR1 monolayer
Experiment: MDCK-MDR1 monolayer permeability / P-gp efflux
Type: in vitro ADME
Conditions: csv file
For each entry below, report its MDCK-mdr1 ER value.
Numbers only.

Answered examples (3):
O=C(CSc1ncnc2c(C3CC3)c(Cl)sc12)N1CCOCC1 [Compound 17c] : 0.95
O=C(CSc1ncnc2c(C3CC3)c(Cl)sc12)N1CCn2cnnc2C1 [Compound 17p] : 98
O=C1CN(C(=O)CSc2ncnc3c(C4CC4)c(Cl)sc23)CN1 [Compound 17g] : 3.7

Given item O=C1CN(C(=O)CSc2ncnc3c(C4CC4)c(Cl)sc23)CCN1 [Compound 17i] , the value recorded as its MDCK-mdr1 ER is 8.2

====

Test: Mouse pharmacokinetics, plasma and brain, oral dose
Assay type: in vivo, CD1 mouse
Conditions: CD1, po, plasma, p.o. 10 mg/kg
metric: AUC(0-inf) (µg·h/mL)
Answers are plain numbers, in µg·h/mL.

Given item O=C(O)CSc1ncnc2c(C3CC3)c(Cl)sc12 [Compound 1] , the value recorded as its AUC(0-inf) is 354

====

System: P-gp (MDR1)
Assay: MDCK-MDR1 monolayer permeability / P-gp efflux
Type: in vitro ADME
Conditions: dog, MDCK-MDR1, Table S4; AB direction; read-out: MDCK-MDR1 AB Papp
For each entry below, report its Papp value.
Numbers only, in ×10⁻⁶ cm/s.

Record Papp per entry; entries follow.
1. O=C(CSc1ncnc2c(C3CC3)c(Cl)sc12)N1CCn2nncc2C1 [Compound 17r]
2. O=C(CSc1ncnc2c(C3CC3)c(Cl)sc12)N1CCn2cncc2C1 [Compound 17n]
3. O=C1CN(C(=O)CSc2ncnc3c(C4CC4)c(Cl)sc23)CCN1 [Compound 17i]
4. O=C(CSc1ncnc2c(C3CC3)c(Cl)sc12)N1CCn2c(nnc2C(F)(F)F)C1 [Compound 17q]

Ans.
26
9
7.9
12

Record Papp per entry; entries follow.
1. CN1CN(C(=O)CSc2ncnc3c(C4CC4)c(Cl)sc23)CC1=O [Compound 17h]
2. O=C(CSc1ncnc2c(C3CC3)c(Cl)sc12)N1CCn2ccnc2C1 [Compound 17m]
3. O=C(CSc1ncnc2c(C3CC3)c(Cl)sc12)N1CCOCC1 [Compound 17c]

Ans.
[6, 21, 40]

====

Tested on: P-gp (MDR1)
Test: MDCK-MDR1 monolayer permeability / P-gp efflux
Assay type: in vitro ADME
Conditions: dog, MDCK-MDR1, Table S4; BA direction; read-out: MDCK-MDR1 BA Papp
metric: Papp (×10⁻⁶ cm/s)
One number for each entry, in ×10⁻⁶ cm/s.

O=C(CSc1ncnc2c(C3CC3)c(Cl)sc12)N1CCn2c(nnc2C(F)(F)F)C1 [Compound 17q] : 34
O=C(CSc1ncnc2c(C3CC3)c(Cl)sc12)N1CCn2nncc2C1 [Compound 17r] : 28
O=C(CSc1ncnc2c(C3CC3)c(Cl)sc12)N1CCOCC1 [Compound 17c] : 38
CN1CN(C(=O)CSc2ncnc3c(C4CC4)c(Cl)sc23)CC1=O [Compound 17h] : 13

Record Papp per entry; entries follow.
1. O=C1CN(C(=O)CSc2ncnc3c(C4CC4)c(Cl)sc23)CCN1 [Compound 17i]
2. O=C(CSc1ncnc2c(C3CC3)c(Cl)sc12)N1CCn2ccnc2C1 [Compound 17m]
3. O=C(CSc1ncnc2c(C3CC3)c(Cl)sc12)N1CCn2cncc2C1 [Compound 17n]
4. O=C(CSc1ncnc2c(C3CC3)c(Cl)sc12)N1CCn2cnnc2C1 [Compound 17p]
5. O=C1CN(C(=O)CSc2ncnc3c(C4CC4)c(Cl)sc23)CN1 [Compound 17g]

Ans.
65
25
31
93
14
